Every entry's value here was drawn from patent US10966978B2.

# MEASUREMENT PROTOCOL: Clinical PK of HDM201 in patients (non-compartmental and population PK), study HDM201X2101
# Type: in vivo, human
# COND: human, plasma, oral, 350 mg, Regimen 1A 350 mg, Day 1 single dose, solid malignancies, N = 4; read-out: T½, Geo Mean (% CV) (converted)
READOUT NAME: half-life (h)

molecule=COc1ncc(-c2nc3c(n2C(C)C)[C@H](c2ccc(Cl)cc2)N(c2cc(Cl)cn(C)c2=O)C3=O)c(OC)n1 readout_name=half-life value_observed=15.1

====

# MEASUREMENT PROTOCOL: Clinical PK of HDM201 in patients (non-compartmental and population PK), study HDM201X2101
# Assay type: in vivo, human
# COND: human, plasma, oral, 20 mg, Regimen 2A 20 mg, Day 1 single dose, solid malignancies, N = 5; read-out: Cmax, Geo Mean (% CV)
READOUT NAME: Cmax (ng/mL)

molecule="COc1ncc(-c2nc3c(n2C(C)C)[C@H](c2ccc(Cl)cc2)N(c2cc(Cl)cn(C)c2=O)C3=O)c(OC)n1 [HDM201]" value_observed=164

====

# MEASUREMENT PROTOCOL: Clinical PK of HDM201 in patients (non-compartmental and population PK), study HDM201X2101
# Type: in vivo, human
# COND: human, plasma, oral, 20 mg, Regimen 2A 20 mg, Day 1 single dose, solid malignancies, N = 5; read-out: AUClast (0-24 h), Geo Mean (% CV)
READOUT NAME: AUC(0-t)

molecule=COc1ncc(-c2nc3c(n2C(C)C)[C@H](c2ccc(Cl)cc2)N(c2cc(Cl)cn(C)c2=O)C3=O)c(OC)n1 readout_name=AUC(0-t) value_observed="2300 ng·h/mL"

====

# MEASUREMENT PROTOCOL: Clinical PK of HDM201 in patients (non-compartmental and population PK), study HDM201X2101
# Type: in vivo, human
# COND: human, plasma, oral, after a single dose (50 to 350 mg); read-out: Mean T½
READOUT NAME: half-life

molecule=COc1ncc(-c2nc3c(n2C(C)C)[C@H](c2ccc(Cl)cc2)N(c2cc(Cl)cn(C)c2=O)C3=O)c(OC)n1 readout_name=half-life value_observed="11.8 to 16.3 h"

====

# MEASUREMENT PROTOCOL: Clinical PK of HDM201 in patients (non-compartmental and population PK), study HDM201X2101
# Type: in vivo, human
# COND: human, plasma, oral, 7.5 mg, Regimen 2A 7.5 mg daily, Day 14, solid malignancies, N = 2; read-out: AUClast (0-24 h), Geo Mean (% CV)
READOUT NAME: AUC(0-t) (ng·h/mL)

compound="COc1ncc(-c2nc3c(n2C(C)C)[C@H](c2ccc(Cl)cc2)N(c2cc(Cl)cn(C)c2=O)C3=O)c(OC)n1 [HDM201]" value_observed=222

====

# MEASUREMENT PROTOCOL: Clinical PK of HDM201 in patients (non-compartmental and population PK), study HDM201X2101
# Type: in vivo, human
# COND: human, plasma, oral, 350 mg, Regimen 1A 350 mg, Day 1 single dose, solid malignancies, N = 5; read-out: Cmax, Geo Mean (% CV)
READOUT NAME: Cmax (ng/mL)

compound="COc1ncc(-c2nc3c(n2C(C)C)[C@H](c2ccc(Cl)cc2)N(c2cc(Cl)cn(C)c2=O)C3=O)c(OC)n1 [HDM201]" readout_name=Cmax output_unit=ng/mL value_observed=1940

====

# MEASUREMENT PROTOCOL: Clinical PK of HDM201 in patients (non-compartmental and population PK), study HDM201X2101
# Assay type: in vivo, human
# COND: human, plasma, po, across dose range 2 to 350 mg; read-out: median time to reach maximum plasma concentrations (Tmax)
READOUT NAME: Tmax

molecule=COc1ncc(-c2nc3c(n2C(C)C)[C@H](c2ccc(Cl)cc2)N(c2cc(Cl)cn(C)c2=O)C3=O)c(OC)n1 readout_name=Tmax value_observed="2 to 5.8 h"

====

# MEASUREMENT PROTOCOL: Clinical PK of HDM201 in patients (non-compartmental and population PK), study HDM201X2101
# Format: in vivo, human
# COND: human, plasma, oral, 100 mg, Regimen 1A 100 mg, Day 1 single dose, solid malignancies, N = 3; read-out: T½, Geo Mean (% CV) (converted)
READOUT NAME: half-life

molecule=COc1ncc(-c2nc3c(n2C(C)C)[C@H](c2ccc(Cl)cc2)N(c2cc(Cl)cn(C)c2=O)C3=O)c(OC)n1 value_observed="16.3 h"

====

# MEASUREMENT PROTOCOL: Clinical PK of HDM201 in patients (non-compartmental and population PK), study HDM201X2101
# Assay type: in vivo, human
# COND: human, plasma, oral, 1 mg, Regimen 2A 1 mg, Day 1 single dose, solid malignancies, N = 1; read-out: Tmax, median
READOUT NAME: Tmax (h)

compound="COc1ncc(-c2nc3c(n2C(C)C)[C@H](c2ccc(Cl)cc2)N(c2cc(Cl)cn(C)c2=O)C3=O)c(OC)n1 [HDM201]" value_observed=8

====

# MEASUREMENT PROTOCOL: Clinical PK of HDM201 in patients (non-compartmental and population PK), study HDM201X2101
# Assay type: in vivo, human
# COND: human, plasma, oral, 15 mg, Regimen 2A 15 mg, Day 1 single dose, solid malignancies, N = 4; read-out: Tmax, median
READOUT NAME: Tmax (h)

molecule=COc1ncc(-c2nc3c(n2C(C)C)[C@H](c2ccc(Cl)cc2)N(c2cc(Cl)cn(C)c2=O)C3=O)c(OC)n1 value_observed=3.1

====

# MEASUREMENT PROTOCOL: Clinical PK of HDM201 in patients (non-compartmental and population PK), study HDM201X2101
# Assay type: in vivo, human
# COND: human, plasma, oral, 25 mg, Regimen 1A 25 mg, Day 1 single dose, solid malignancies, N = 1; read-out: Tmax, median
READOUT NAME: Tmax (h)

compound="COc1ncc(-c2nc3c(n2C(C)C)[C@H](c2ccc(Cl)cc2)N(c2cc(Cl)cn(C)c2=O)C3=O)c(OC)n1 [HDM201]" output_unit=h value_observed=2.1

====

# MEASUREMENT PROTOCOL: Clinical PK of HDM201 in patients (non-compartmental and population PK), study HDM201X2101
# Type: in vivo, human
# COND: human, plasma, oral, 20 mg, Regimen 2A 20 mg daily, Day 14, solid malignancies, N = 4; read-out: AUClast (0-24 h), Geo Mean (% CV)
READOUT NAME: AUC(0-t) (ng·h/mL)

molecule=COc1ncc(-c2nc3c(n2C(C)C)[C@H](c2ccc(Cl)cc2)N(c2cc(Cl)cn(C)c2=O)C3=O)c(OC)n1 value_observed=1260

====

# MEASUREMENT PROTOCOL: Clinical PK of HDM201 in patients (non-compartmental and population PK), study HDM201X2101
# Assay type: in vivo, human
# COND: human, plasma, oral, 7.5 mg, Regimen 2A 7.5 mg daily, Day 14, solid malignancies, N = 2; read-out: Cmax, Geo Mean (% CV)
READOUT NAME: Cmax (ng/mL)

molecule=COc1ncc(-c2nc3c(n2C(C)C)[C@H](c2ccc(Cl)cc2)N(c2cc(Cl)cn(C)c2=O)C3=O)c(OC)n1 readout_name=Cmax value_observed=36.1

====

# MEASUREMENT PROTOCOL: Clinical PK of HDM201 in patients (non-compartmental and population PK), study HDM201X2101
# Type: in vivo, human
# COND: human, plasma, oral, 20 mg, Regimen 2A 20 mg daily, Day 14, solid malignancies, N = 4; read-out: Cmax, Geo Mean (% CV)
# Method: Pharmacokinetic data have been evaluated throughout the course of the dose escalation. Two HDM201 drug variants have been evaluated during the course of the study (refer to the protocol for further details). […] Furthermore, an integrated analysis of all available HDM201 concentrations was conducted using a population approach. […] The PK of HDM201 have been evaluated in the ongoing single agent Phase I clinical trial in patients with solid tumors and hematological malignancies (HDM201X2101). […]
READOUT NAME: Cmax

compound="COc1ncc(-c2nc3c(n2C(C)C)[C@H](c2ccc(Cl)cc2)N(c2cc(Cl)cn(C)c2=O)C3=O)c(OC)n1 [HDM201]" value_observed="214 ng/mL"

====

# MEASUREMENT PROTOCOL: Clinical PK of HDM201 in patients (non-compartmental and population PK), study HDM201X2101
# Type: in vivo, human
# COND: human, plasma, oral, 250 mg, Regimen 1A 250 mg, Day 1 single dose, solid malignancies, N = 6; read-out: Tmax, median
READOUT NAME: Tmax (h)

molecule=COc1ncc(-c2nc3c(n2C(C)C)[C@H](c2ccc(Cl)cc2)N(c2cc(Cl)cn(C)c2=O)C3=O)c(OC)n1 output_unit=h value_observed=3.5
